FYI, the data here is from the nanobody polyreactivity screen of Harvey et al. (2022).

assay: yeast display, Sf9 membrane polyspecificity reagent, FACS + sequencing; frameworks hold sequencing errors
REPORTED_METRIC: polyreactivity (PSR sort gate)

>>> value("QVQLVESGGGLDQAGGSLRLSCAASGSTLFPYAMGWYRQAPGKERELVAAISSRGGRTNYADSVKGRFTISRDNAKNTDYLQLYSLKPEDTAVYYCAAGDDYWGQGTEVTVSS")
"high polyreactivity"
>>> value("QVLLQESGGGLVQAGGSLRLGCAASGTISPAYYMGRYHQAPGKEREFVAAITYGTNTYYADSVKGRFTISRDNAKNSVYLQMNSLKPEDTAVYYCSATAGYNGAHDYWGQGTQVTVSS")
"low polyreactivity"
>>> value("QVQLVESGGGLVQAGGSLRLSCAAYGGTFPAYTMGWYRQAPGKERELVAAITWSGGNTYYADSVKGRFTISRDNAKNTVYLQMNSLKPQDTAVYYCAAEYWQYQWSVRIDYEYWGQGTQVNVSS")
"high polyreactivity"
>>> value("QVQLVESGGGLVQAGGSLRLSCAASGRNIVGYAMGWYIQAPGKERELVAAITKSGGRTYYADSVKGRFTISRDNAKNTVYLQMNSLKPEDTAVYYCAVLNSKWNEYDYWGQGTQVTVSS")
"high polyreactivity"

For the next question, use this sequence.
Query: Which polyreactivity (PSR sort gate) value is on record for `QVQLVESGGGLLQAGGSLRLSCAASGLIFYDNMGWYRQAPGKERELVAAISSTGGSTSYADSVKGRFTISRDNAKNTVYLLMNSLKPEDTAVYYCAADSYPAYLGFVGFDYWGQGTQLTVSS` ?
Reply: low polyreactivity
